Source listed as the supplement of paper PMC9170038.

# System: MS2 coat protein
# protocol details: apparent KD of MS2 coat protein, switch OFF state (with FMN for OFF switches, without FMN for ON switches); designed switch direction (-1 OFF switch, 1 ON switch): -1; higher = weaker reporter binding
# condition info: FMN input: 0 or 200 uM; Eterna round: R93 (includes R88 designs)
# key: entry, value: apparent KD of MS2 coat protein
Your answer is read as nM, so omit the unit and give the number.

Known results for sequences:
AAAAAGUGAGGAUAUACAUGAGGAUCACCCAUGUGUUAAAAAAAAAGGGUGGAAGAAAGUAGAAGGCACCAAAA [Ex 3 May 50] | 22.9
AAAUAGUUAGGAUAUACAUGAGGAUCACCCAUGUGCACUUAUGGAGAAUAGUGUAAUGGUAGAAGGGACUAAAA [EX2 Malc#23] | 94.6
AAGAAACAUGAGGAUCACCCAUGUGAGGAUAUGCAAGAAAGAAAGAAAGAAAGAAGAAGCAGAAGGCACAAAGG [Gaius Turranius] | 65.9
AAAAAGUGAGGAUAUGGUAAAAAAAAAAAAAAAAAAAACCUCCAGAAGGCACAUGAGGAUCACCCAUGUAAAAA [Jolly's Folly 2 - Jieux - Exclusion 4] | 34.6
AAGAAACGAGGAUAUACAAAAUAAAAGAAAAGAAAGAAAGAACAUGAGGAUCACCCAUGUAGAAGGCGUAAGAA [Wahibre Ibiau] | 30.3
AACAGUACAGGAUAUACAUGAGGAUCACCCAUGUGAGAAACCAGUGGCGUACCACAAAGUAGAAGGGUACUGGA [Moding Maslow Revisited (73) 28] | 185
AAGAAUAGAGGAUAUACAAGGAAGAAAGAAAAGAAAAGAAAACAUGAGGAUCACCCAUGUAGAAGGCUAUAGAA [EteRNA is fun!] | 26.2
AGCUAGUGAGGAUAUACGAACAUGUCAAAAGACGUGAAGAAACAUGAGGAUCACCCAUGUAGAAGGCACUAGCA [Mat - Exclusion 2 - JL-Eli mod - D55] | 14.9
AAGAUGUGAGGAUAUGCUGCUCGUCACAAAAGUGAUGAGUAGCAGAAGGUACAUGAGGAUCACCCAUGUAAAGA [JL eternac mod 7] | 20.9
AAAAGAAAAGGAUAUAAAAAGAAAAGUCAGGAUAUAGGAAACUAGAAGGGACAUGAGGAUCACCCAUGUAAAAG [Meechl Ex4 R2 m2] | 71.9

Query :: Supply apparent KD of MS2 coat protein value. Item: AGUGAGUGAGGAUAUGCUAGAAGAAUAAAAGAAAUAACGUAGCAGAAGGCACAUGAGGAUCACCCAUGUACACA [May 66]
Result :: 22.5

Query :: Supply apparent KD of MS2 coat protein value. Item: AAGUCGUGAGGAUAUACAUGGAUAUACAUUCAUGUGGACCUACAUGAGGAUCACCCAUGUAGAAGGCACGAAUA [AJ 49]
Result :: 53.5

Query :: Supply apparent KD of MS2 coat protein value. Item: GGAAAACAUGAGGAUCACCCAUGUGAGGAUAUCGAUGUCCAAACCAAAGUGCGGGACUCGAGAAGGCACUUGGA [salish99-ex1-37]
Result :: 28.6

----------
# System: MS2 coat protein
# protocol details: apparent KD of MS2 coat protein; designed switch direction (-1 OFF switch, 1 ON switch): -1; higher = weaker reporter binding
# condition info: input ligand: microRNA oligo, concentration not stated
Given measured apparent KD of MS2 coat protein, output yes if it is greater than or equal to 0.02 µM and no if not.

Query :: Decide: is the reported value of apparent KD of MS2 coat protein for GUAAGGCAUCUAGGAUAUAGUAUACGGCGAACAUGAGGAUCACCCAUGUGUCCGAAUGCGGCGAGCUAGAAGGAGAAAUUGCCC [Enuszarima] (Eterna round: R96, puzzle: Exclusion NG 2) equal to or greater than 0.02 µM?
Result :: yes

Query :: Decide: is the reported value of apparent KD of MS2 coat protein for UUGCAGUCGUCAGGAUAUAGUAUUACGGCCUUUCAUUUCUUCAUACAUGAGGAUCACCCAUGUCGCUAGAAGGGCUUAUCGCUU [salish99_ExNG2_r04_108] (Eterna round: R96, puzzle: Exclusion NG 2) equal to or greater than 0.02 µM?
Result :: no

Query :: Decide: is the reported value of apparent KD of MS2 coat protein for CAUAGUUGCUCAGGAUAUCAUACAUGAGGAUCACCCAUGUAAUAAAUGAGAAUUUCGAAUGUAAAUGAGAAGGGAGAAAUCUAC [Ostracism 60 - Jieux - Exclusion NG 2] (Eterna round: R96, puzzle: Exclusion NG 2) equal to or greater than 0.02 µM?
Result :: no

----------
# System: MS2 coat protein
# protocol details: apparent KD of MS2 coat protein, switch OFF state (with FMN for OFF switches, without FMN for ON switches); designed switch direction (-1 OFF switch, 1 ON switch): -1; higher = weaker reporter binding
# condition info: FMN input: 0 or 200 uM; Eterna round: R93 (includes R88 designs)
quantity name: apparent KD of MS2 coat protein (nM)
Your answer is read as nM, so omit the unit and give the number.

Query :: Supply apparent KD of MS2 coat protein value. Item: AACAGUACAGGAUAUACAUGAGGAUCACCCAUGUAAAGGGAAAGUGGCGUACCACAAAGUAGAAGGGUACUGGA [Moding Maslow revisited (73) 5]
Result :: 175

Query :: Supply apparent KD of MS2 coat protein value. Item: AUGUACCUAGGAUAUACAUGAGGAUCACCCAUGUACUGGGAGCAAUCAAGUUAAUAUUGUAGAAGGAGGUGAAA [JR_Exc003_Sub315]
Result :: 58.6

Query :: Supply apparent KD of MS2 coat protein value. Item: CAGUACUGAGGAUAUACAUGAGGAUCACCCAUGUAUCAAAGCUAGGAAACUAGCACAUGUAGAAGGCAGUACUG [Ex3: 823]
Result :: 132

Query :: Supply apparent KD of MS2 coat protein value. Item: AAAAAGGCAGGAUAUGCAUACCCACGGAAAAAAAGGCUGGGACAUGAGGAUCACCCAUGUAGAAGGGCCAAAAA [Dora Explored 12 - Jieux - Exclusion 2]
Result :: 14.5

----------
# System: MS2 coat protein
# protocol details: apparent KD of MS2 coat protein; designed switch direction (-1 OFF switch, 1 ON switch): -1; higher = weaker reporter binding
# condition info: input ligand: none
Given measured apparent KD of MS2 coat protein, output true if it is greater than or equal to 30 nM and false if not.

GAUCAUGCAGGAUAUACAUGGAACAUGAAAACAUGAAUUUCACAUGAGGAUCACCCAUGUAGAAGGGCAUGAUC [Omei Ex2 A12] (Eterna round: R97, puzzle: Exclusion 2) | true
UAGCAUUGCCUUUGGUAGUGCAUUACAUGAGGAUCACCCAUGUAGGAUAUGGUAGGCUUUGCUUACCAGAAGGACAUGAUAAUU [JL ENG3 1.05] (Eterna round: R96, puzzle: Exclusion NG 3) | true
ACGUACUCUGUAGGAUAUCGAUGAUGCAUGAUUCGAGAAGGACAUGAGGAUCACCCAUGUUUCAAAAGCAUACUAUGUGUAGUA [Design #2] (Eterna round: R96, puzzle: Exclusion NG 1) | false
GCAGCAUAUGUAGGAUAUCUGCACGAUUAGUGCAGAGAAGGACAUGAGGAUCACCCAUGUAAUUAAGAUCAAUUAUUAAGCUGC [ENG1/4-A1] (Eterna round: R96, puzzle: Exclusion NG 1) | false
AUGCUCCGUGUAGGAUAUCGCCGUACCACUCGGCGAGAAGGACAUGAGGAUCACCCAUGUAUGUUAUUAUCACGUGUGGCGCGC [Design 50] (Eterna round: R96, puzzle: Exclusion NG 1) | false

Query :: Decide: is the reported value of apparent KD of MS2 coat protein for AAAAUAAAGGCAGGAUAUCGGAGGCGCUGGCACCGAGAAGGGCCAGGGUGUCGUCAAAACAUGAGGAUCACCCAUGUGAGUGAC [Maanated] (Eterna round: R96, puzzle: Exclusion NG 1) equal to or greater than 30 nM?
Result :: false

Query :: Decide: is the reported value of apparent KD of MS2 coat protein for AAUUAGUAUGUGAGGAUAUUGAUGUAAUGAUGGUUUAAGAAGGCACAUGAGGAUCACCCAUGUAGGAAAUCACG [JR_BMEx4_Sub006] (Eterna round: R97, puzzle: Brourd's mod of Exclusion 4) equal to or greater than 30 nM?
Result :: false

Query :: Decide: is the reported value of apparent KD of MS2 coat protein for UAAAAGGCAGGAUAUGCAGAAAAGGAAACUUUUCAAGAAUGACAUGAGGAUCACCCAUGUAGAAGGGCCUUUUA [Alacar Attempt 3] (Eterna round: R97, puzzle: Exclusion 2) equal to or greater than 30 nM?
Result :: false

Query :: Decide: is the reported value of apparent KD of MS2 coat protein for AGUAGGAGAGGAUAUACGAAGUCAAAAGACUUCGAUCCUCAACAUGAGGAUCACCCAUGUAGAAGGCUCCUACA [Omei Ex2 BD A1] (Eterna round: R97, puzzle: Exclusion 2) equal to or greater than 30 nM?
Result :: true

Query :: Decide: is the reported value of apparent KD of MS2 coat protein for UGUACGAUGCGUGCUGACAUGCGUCGUGCAGCAGGUGGAACAUGAGGAUCACCCAUGUCCUCAUUUGCUCGUCUUAU [Mat - Sensor v3 - Turn-off var 2 - D21] (Eterna round: R96, puzzle: Sensor v3, turn-off variant 2) equal to or greater than 30 nM?
Result :: true

Query :: Decide: is the reported value of apparent KD of MS2 coat protein for AGUUGUUGCGUAGGAUAUGAGGAUCACCCAUAGUAGGAUAACGAAAGUGAAGGACUGAGGAUUACCCAGAAGGACGUGAUGACA [pwkr exNG2 2xF5 2xFMN.6] (Eterna round: R96, puzzle: Exclusion NG 2) equal to or greater than 30 nM?
Result :: true

Query :: Decide: is the reported value of apparent KD of MS2 coat protein for AGCUAGUGCCGAGGAUAUACAUGAGGAUCACCCAUGUAAGGCAGUCGGUUUCUGACUGCCAAUAUGUAGAAGGCGGCGUUGGCA [JL ENG2 1.48] (Eterna round: R96, puzzle: Exclusion NG 2) equal to or greater than 30 nM?
Result :: false

Query :: Decide: is the reported value of apparent KD of MS2 coat protein for AAUAACAAGUUGAUCCUACACAUGAGGAUCACCCAUGUGCUCGUCUUGUAAAGUACUAUCACGAAAGUGAUAGUACA (Eterna round: R97, puzzle: Sensor, turn-off variant 1) equal to or greater than 30 nM?
Result :: true
